# tested_on: T1, rat NPY Y5 receptor, clone Y555 (rat)
# T1 chain: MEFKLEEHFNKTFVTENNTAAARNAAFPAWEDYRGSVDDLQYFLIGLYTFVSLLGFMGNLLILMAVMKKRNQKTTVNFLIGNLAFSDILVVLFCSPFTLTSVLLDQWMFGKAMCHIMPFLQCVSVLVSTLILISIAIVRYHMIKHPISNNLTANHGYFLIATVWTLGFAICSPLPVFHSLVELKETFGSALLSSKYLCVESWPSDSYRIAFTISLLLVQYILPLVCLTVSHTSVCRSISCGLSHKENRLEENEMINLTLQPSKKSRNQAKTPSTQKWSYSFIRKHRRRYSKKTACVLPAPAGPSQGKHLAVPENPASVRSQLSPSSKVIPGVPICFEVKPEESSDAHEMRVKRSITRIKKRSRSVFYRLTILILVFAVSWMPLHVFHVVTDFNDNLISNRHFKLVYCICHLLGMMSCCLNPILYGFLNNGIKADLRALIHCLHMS
# test_method_notes: competition with [125I]PYY, membranes of transfected COS-7 cells; average of two experiments
test_readout: IC50 (nM)
Reply numerically in nM, unit not repeated.

The binder listed as SPEELSRYYASLRHYLNLVTRQRY [r(13-36)PYY] has a reported IC50 of 32
